System: rice (Oryza sativa) seeds, germ
procedure_summary: Inhibition of germ elongation of rice seeds
condition_summary: 10 µg/mL; 48 h, 25 °C, dark; mean of triplicate ± SD
Values of Inhibition Ratio (%) Seed Germ Var. Zhonghua 11 strictly less than 10% map to class 1, and values of at least 10% map to class 0.

INSERT INTO measurements (compound, system_name, category_label) VALUES
  ('CC[C@@]1(C)Oc2cc(c([S+]([O-])C[C@@H](O)C[C@H](N)C(=O)O)cc2O)[C@@H](O)[C@H](NC)C(=O)N[C@@H](C)C(=O)N[C@@H]1C(=O)NCC(=O)O (stereo partly drawn)', 'rice (Oryza sativa) seeds, germ', 'class 1'),
  ('CC[C@@]1(C)Oc2cc(c([S+]([O-])CCO)cc2O)[C@@H](O)[C@H](NC)C(=O)N[C@@H](C(C)C)C(=O)N[C@@H]1C(=O)NCC(=O)O (stereo partly drawn)', 'rice (Oryza sativa) seeds, germ', 'class 0'),
  ('CC[C@@]1(C)Oc2cc(c([S+]([O-])C[C@@H](O)C[C@H](N)C(=O)O)cc2O)[C@@H](O)[C@H](NC)C(=O)N[C@@H](C(C)C)C(=O)N[C@@H]1C(=O)NCC(=O)O (stereo partly drawn)', 'rice (Oryza sativa) seeds, germ', 'class 0'),
  ('CC[C@@]1(C)Oc2cc(ccc2O)[C@@H](O)[C@H](NC)C(=O)N[C@@H](C(C)C)C(=O)N[C@@H]1C(=O)NCC(=O)O', 'rice (Oryza sativa) seeds, germ', 'class 0'),
  ('O=C(O)CNCP(=O)(O)O [Glyphosate, N-(phosphonomethyl)glycine, reference compound]', 'rice (Oryza sativa) seeds, germ', 'class 0');

====

Test system: rice (Oryza sativa) seeds, radicle
procedure_summary: Inhibition of radicle elongation of rice seeds
condition_summary: 50 µg/mL; 48 h, 25 °C, dark; mean of triplicate ± SD
As shown below, each of these compounds has a reported Inhibition Ratio (%) Seed Radicle Var. Lijiang value.
quantity_kind: Inhibition Ratio (%) Seed Radicle Var. Lijiang

INSERT INTO measurements (compound, experimental_result) VALUES
  ('CC[C@@]1(C)Oc2cc(c([S+]([O-])C[C@@H](O)C[C@H](N)C(=O)O)cc2O)[C@@H](O)[C@H](NC)C(=O)N[C@@H](C)C(=O)N[C@@H]1C(=O)NCC(=O)O (stereo partly drawn)', '53.24 ± 4.98 e %'),
  ('CC[C@@]1(C)Oc2cc(ccc2O)[C@@H](O)[C@H](NC)C(=O)N[C@@H](C)C(=O)N[C@@H]1C(=O)NCC(=O)O', '22.17%'),
  ('CC[C@@]1(C)Oc2cc(c([S+]([O-])C[C@@H](O)C[C@H](N)C(=O)O)cc2O)[C@@H](O)[C@H](NC)C(=O)N[C@@H](C(C)C)C(=O)N[C@@H]1C(=O)NCC(=O)O (stereo partly drawn)', '87.38 ± 0.79 b %');

====

Tested on: rice (Oryza sativa) seeds, germ
procedure_summary: Inhibition of germ elongation of rice seeds
condition_summary: 20 µg/mL; 48 h, 25 °C, dark; mean of triplicate ± SD
quantity_kind: Inhibition Ratio (%) Seed Germ Var. Zhonghua 11

INSERT INTO assay_data (molecule, system_name, measurement_unit, experimental_result) VALUES
  ('CC[C@@]1(C)Oc2cc(c([S+]([O-])CCO)cc2O)[C@@H](O)[C@H](NC)C(=O)N[C@@H](C(C)C)C(=O)N[C@@H]1C(=O)NCC(=O)O (stereo partly drawn)', 'rice (Oryza sativa) seeds, germ', '%', 14.68),
  ('CC[C@@]1(C)Oc2cc(ccc2O)[C@@H](O)[C@H](NC)C(=O)N[C@@H](C(C)C)C(=O)N[C@@H]1C(=O)NCC(=O)O', 'rice (Oryza sativa) seeds, germ', '%', 12.28),
  ('O=C(O)CNCP(=O)(O)O [Glyphosate, N-(phosphonomethyl)glycine, reference compound]', 'rice (Oryza sativa) seeds, germ', '%', 29.21);
